- target under test: BRSK2 (human) (UniProt Q8IWQ3)
- Sequence (Q8IWQ3 whole entry, looked up): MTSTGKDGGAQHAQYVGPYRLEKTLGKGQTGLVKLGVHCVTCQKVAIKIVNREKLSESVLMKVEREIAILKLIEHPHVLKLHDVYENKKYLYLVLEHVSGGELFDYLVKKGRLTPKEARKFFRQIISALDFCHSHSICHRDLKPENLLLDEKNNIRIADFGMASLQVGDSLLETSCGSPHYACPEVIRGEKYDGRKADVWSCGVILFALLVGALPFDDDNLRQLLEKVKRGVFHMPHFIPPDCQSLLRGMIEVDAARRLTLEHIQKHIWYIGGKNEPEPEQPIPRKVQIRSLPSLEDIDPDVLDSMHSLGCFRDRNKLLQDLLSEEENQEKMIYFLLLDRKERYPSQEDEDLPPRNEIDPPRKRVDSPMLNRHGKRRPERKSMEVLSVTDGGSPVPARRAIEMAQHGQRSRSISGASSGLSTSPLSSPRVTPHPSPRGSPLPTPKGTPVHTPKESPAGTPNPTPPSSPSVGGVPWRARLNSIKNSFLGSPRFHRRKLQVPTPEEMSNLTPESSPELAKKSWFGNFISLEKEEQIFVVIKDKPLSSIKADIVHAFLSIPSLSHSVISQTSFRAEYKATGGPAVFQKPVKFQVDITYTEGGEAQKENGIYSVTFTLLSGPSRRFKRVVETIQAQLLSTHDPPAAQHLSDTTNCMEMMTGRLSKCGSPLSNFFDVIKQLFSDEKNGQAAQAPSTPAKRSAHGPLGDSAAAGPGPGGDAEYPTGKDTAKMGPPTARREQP
- assay name: KINOMEscan competition binding
- test context: compound 10.0 µM
assay endpoint: kinase still bound, per cent of control (%)

Some compounds with recorded kinase still bound, per cent of control:
# smiles entry, target under test, kinase still bound, per cent of control / %
measured = [
    ("COc1ccc(CNC(=O)Nc2ncc([N+](=O)[O-])s2)cc1", "BRSK2 (human) (UniProt Q8IWQ3)", 100),
    ("Cn1cc(C2=C(c3ccc(Cl)cc3Cl)C(=O)NC2=O)c2ccccc21", "BRSK2 (human) (UniProt Q8IWQ3)", 85),
]

1 = O=C1Nc2cc(Br)ccc2/C1=C1/Nc2ccccc2/C1=N\O
2 = Cc1cnc(-c2cnc(NCCNc3ccc(C#N)cn3)nc2-c2ccc(Cl)cc2Cl)[nH]1
Which has the smaller recorded kinase still bound, per cent of control, 1 or 2 ? Output the label that corresponds to your choice.
1
(1: 1.1%, 2: 97%)

Data provenance: the kinase profiling compilation of Christmann-Franck et al. (2016)
